Reference source: patent US7763615B2

system: MB231; test: cells; assay type: cell-based; settings: Homo sapiens, 48 h, read-out: LC50
endpointName: CC50 (nM)

# molecule, endpointName, obsValue
measured = [
    ("COc1c(C)cc2c(c1O)[C@@H]1C3[C@@H]4SC[C@]5(NCCc6c5[nH]c5ccccc65)C(=O)COC[C@@H](c5c6c(c(C)c(OC(=O)C(F)(F)C(F)(F)C(F)(F)F)c54)OCO6)N3[C@@H](O)[C@H](C2)N1C (some centres unmarked)", "CC50", 33),
    ("COc1c(C)cc2c(c1O)[C@@H]1C3[C@@H]4SC[C@]5(NCCc6c5[nH]c5c(OCc7ccccc7)cccc65)C(=O)COC[C@@H](c5c6c(c(C)c(OC(C)=O)c54)OCO6)N3[C@@H](O)[C@H](C2)N1C (some centres unmarked)", "CC50", 116),
]

###

test system: IGROV-ET; test: cells; format: cell-based; conditions: Homo sapiens, 48 h, IGROV-ET, 48 hours exposure, SRB
Reported log10(GI50) values follow for various molecules
endpointName: log10(GI50) (log10 of the value in µM)

# molecule, log10(GI50)
measured = [
    ("C=COC(=O)Oc1c(C)c2c(c3c1[C@H]1SC[C@]4(NCCC5c6ccccc6NC54)C(=O)OC[C@@H]3N3C1[C@H]1c4c(cc(C)c(OC)c4OC(=O)OC=C)C[C@@H]([C@@H]3C#N)N1C)OCO2 (stereo partly drawn)", -1.51),
    ("COc1c(C)cc2c(c1O)[C@@H]1C3[C@@H]4SC[C@]5(NCCc6c5[nH]c5ccccc65)C(=O)COC[C@@H](c5c6c(c(C)c(OC(=O)OC(C)(C)C)c54)OCO6)N3[C@@H](C#N)[C@H](C2)N1C (stereo partly drawn)", -0.40),
    ("COc1c(C)cc2c(c1O)[C@@H]1C3[C@@H]4SC[C@]5(NCCc6c5[nH]c5c(C)cccc65)C(=O)COC[C@@H](c5c6c(c(C)c(OC(C)=O)c54)OCO6)N3[C@@H](O)[C@H](C2)N1C (stereo partly drawn)", -1.30),
    ("COc1c(C)cc2c(c1O)[C@@H]1C3[C@@H]4SC[C@]5(C(=O)COC[C@@H](c6c7c(c(C)c(OC(C)=O)c64)OCO7)N3[C@@H](C#N)[C@H](C2)N1C)c1[nH]c2ccccc2c1CCN5C (stereo partly drawn)", -0.24),
    ("COc1c(C)cc2c(c1O)[C@@H]1C3[C@@H]4SC[C@]5(NCCc6c5[nH]c5ccc(F)cc65)C(=O)COC[C@@H](c5c6c(c(C)c(OC(C)=O)c54)OCO6)N3[C@@H](O)[C@H](C2)N1C (stereo partly drawn)", -2.26),
    ("COc1c(C)cc2c(c1O)[C@@H]1C3[C@@H]4SC[C@]5(NCCc6c5[nH]c5ccccc65)C(=O)COC[C@@H](c5c6c(c(C)c(OC(=O)C(F)(F)C(F)(F)C(F)(F)F)c54)OCO6)N3[C@@H](C#N)[C@H](C2)N1C (stereo partly drawn)", -0.58),
]

###

system: LOVO-DOX; experiment: cells; type: cell-based; settings: Homo sapiens, 48 h, read-out: LC50, LOVO-DOX, 48 hours exposure, SRB
Reported CC50 values follow for various molecules

# molecule, testSystem, CC50 [µM]
measured = [
    ("COc1c(C)cc2c(c1O)[C@@H]1C3[C@@H]4SC[C@]5(NCCc6c5[nH]c5c(C)cccc65)C(=O)COC[C@@H](c5c6c(c(C)c(OC(C)=O)c54)OCO6)N3[C@@H](O)[C@H](C2)N1C (stereo partly shown)", "LOVO-DOX", 13),
    ("COc1c(C)cc2c(c1O)[C@@H]1C3[C@@H]4SC[C@]5(NCCc6c5[nH]c5ccc(F)cc65)C(=O)COC[C@@H](c5c6c(c(C)c(OC(C)=O)c54)OCO6)N3[C@@H](O)[C@H](C2)N1C (stereo partly shown)", "LOVO-DOX", 12.9),
    ("COc1c(C)cc2c(c1O)[C@@H]1C3[C@@H]4SC[C@]5(NC(C)Cc6c5[nH]c5ccc(O)cc65)C(=O)COC[C@@H](c5c6c(c(C)c(OC(C)=O)c54)OCO6)N3[C@@H](O)[C@H](C2)N1C (stereo partly shown)", "LOVO-DOX", 12.7),
    ("COc1c(C)cc2c(c1O)[C@@H]1C3[C@@H]4SC[C@]5(NC(C)Cc6c5[nH]c5ccc(F)cc65)C(=O)COC[C@@H](c5c6c(c(C)c(OC(C)=O)c54)OCO6)N3[C@@H](O)[C@H](C2)N1C (stereo partly shown)", "LOVO-DOX", 12.7),
]
